pKi: −log10 of the molar value. Where a name gives a salt, the structure may show the parent alone.
So I've got pKi readings for 5-HT2B receptor (Homo sapiens), take a look.

| molecule | inequalitySign | pKi |
| --- | --- | --- |
| CC(C)c1nc2c(c(-c3ccccc3)n1)CCN(C)C2 | = | 5.94 |
| CC(C)c1nc2c(c(-c3ccc(F)cc3)n1)CCC(O)C2 (stereo not drawn) | = | 5.92 |
| Cc1nc2c(c(-c3ccccc3)n1)CCNCC2 | = | 5.94 |
| FC(F)(F)c1ccc(-c2nc(Cc3ccccc3)nc3c2CCNCC3)cc1 | = | 7.66 |
| CC(C)c1nc2c(c(-c3ccccc3Oc3ccccc3)n1)CNCC2 | < | 5.00 |
| Cc1ccc(-c2nc(Cc3ccc(F)cc3)ncc2CN(C)C)cc1 | < | 5.00 |
| CC(C)c1nc2c(c(-c3ccc(F)cc3)n1)CCNC2 [Example 80, hydrochloride] | = | 6.80 |
| CC(C)c1nc2c(c(-c3ccc(F)cc3)n1)CCNCC2 [Example 50, hydrochloride] | = | 7.70 |
| CCC(C)c1nc2c(c(-c3ccc(F)cc3)n1)CNCC2 (stereo not drawn) [Example 3, hydrochloride] | = | 5.65 |
| CC(C)Cc1nc2c(c(-c3ccc(F)cc3)n1)CNCC2 | = | 6.40 |
| Fc1ccc(-c2nc(Cc3ccccc3)nc3c2CCNC3)cc1 [Example 76, hydrochloride] | = | 6.50 |
| Fc1ccc(Cc2nc3c(c(-c4ccc(F)cc4)n2)CCNCC3)cc1 | = | 7.40 |
| Cc1cc(-c2nc(C(C)C)nc3c2CCNC3)cs1 [Example 88, hydrochloride] | = | 7.22 |
| CC(C)c1nc2c(c(-c3ccccc3)n1)CNCC2 | = | 5.70 |
| CC(C)N1CCc2c(nc(Cc3ccccc3)nc2-c2ccc(F)cc2)C1 | = | 6.00 |
| Fc1ccc(-c2nc(Cc3ccccc3)nc3c2CNCC3)cc1F | < | 5.00 |
| Cc1ccc(-c2nc(Cc3ccccc3)nc3c2CCNCC3)cc1 | = | 8.60 |
| Cc1ccc(-c2nc(C3CCC3)nc3c2CNCC3)cc1 | = | 6.70 |
| Fc1ccc(Cc2nc3c(c(-c4ccc(F)cc4)n2)CNCC3)cc1 | = | 5.66 |
| FC(F)(F)c1ccc(-c2nc(Cc3ccccc3)nc3c2CNCC3)cc1 | < | 5.00 |
| Cc1ccc(-c2nc(C3CCCC3)nc3c2CCN(C)CC3)cc1 | = | 8.11 |
| COc1ccc(-c2nc(Cc3ccccc3)nc3c2CCN(Cc2ccccc2)C3)cc1 | < | 5.00 |
| CC(C)c1nc2c(c(-c3ccc(F)cc3F)n1)CNCC2 | < | 5.00 |
| COc1ccc(-c2nc(C3CCCC3)nc3c2CNCC3)cc1 | = | 6.85 |
| Fc1ccc(-c2nc(C3CCC3)nc3c2CNCC3)cc1 [Example 5, hydrochloride] | = | 6.46 |
| N#Cc1ccc(-c2nc(C3CCCC3)nc3c2CCNCC3)cc1 | = | 7.60 |
| c1ccc(Cc2nc3c(c(-c4ccccc4)n2)CNCC3)cc1 | < | 5.00 |
